assay: amyloid nucleation score (Sup35N fusion, yeast selection) (log enrichment); library NNK2; higher = more nucleation; inactive = no reads after selection;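 further: zero at mode of non-aggregating sequences after 7 days selection at 30°C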
Please respond with reported amyloid nucleation score for every item in the list.
Number only, no unit.

The substance listed as `SLGNQIQVCISLPSMPVTPW` shows amyloid nucleation score equal to 0.512

Reported amyloid nucleation score for `FYWAKPSHWAPGFINGQDVL` was -1.19

// `MSSNYWY` : amyloid nucleation score value = -0.916

get_value(item= `QVLFVRFRRYVYQRMWACWG` , readout=amyloid nucleation score) returns 0.405

So for `ACETCPAAEIYLICGTWKSR` , the logged amyloid nucleation score turned out to be 9.36

// field: amyloid nucleation score; key: `SRYGRTEGRFFVRRRGMHHG` ; value = 0.21

Form: substance = `DVQWTGPRPFPFV` ; amyloid nucleation score = 0.679

Value of amyloid nucleation score reported for the substance `NMFGLPKLVLSDLVVRV` is 1.72

get_value(item= `IVHLSHQG` , readout=amyloid nucleation score) returns -1.25

Lookup result for `ASITIHSFKMRTYTRAITRE` ; measured amyloid nucleation score: 3.92

The substance listed as `ARTLWY` shows amyloid nucleation score equal to -0.522

Please fill in: amyloid nucleation score reported for `RQEINSYGNTPRRGGPRLRH` = -0.093

Entry `VSRMYKHLSYMVLIYSPWRE` — recorded amyloid nucleation score = -0.315

The reported amyloid nucleation score of the substance `WFWNGLFNIRTVLDMHALCT` was 4.11

The value of amyloid nucleation score measured for the substance `CMFSLNGAYSMPHVKMSMCM` turned out to be -0.786

amyloid nucleation score for `LRSKTDAPDGRFLAWSSMLC` is 0.458

For this substance ( `DFKDEGYQRRV` ), measured amyloid nucleation score is -0.37

# amyloid nucleation score (substance: `YFVRFEDIGWTVSVHTGDSG` ) is -0.063

amyloid nucleation score reading for `MNRPVHSDYVYSFSLEFVVV` : -0.089

The substance `SDVKYIGMCSCQHSFIMMGM` showed amyloid nucleation score equal to 0.372

According to the records, this substance `IYGSYVLDLVGVNLAGKGEN` displays amyloid nucleation score of -0.347

Form: substance = `TMDNISSNSFDACSICSYWY` ; amyloid nucleation score = 9.38

amyloid nucleation score for `YSNYTHRNSTLGFKQISRTS` is 0.063

Measured amyloid nucleation score of `RLKCSYTGSALLGRSLGNPE` : 0.29

Record `CYGVFLVVSWDHGGDQIGVV` . Reported amyloid nucleation score: -0.482

Short answer for `NQVQCKCSYKVVEVG` : amyloid nucleation score was 0.408

Looking up `IMEYAPLYFIMF` , I see its amyloid nucleation score listed as 4.16

Field amyloid nucleation score (entry `YTTRSVMVSCGYCR` ) reads -0.29

The reported amyloid nucleation score of the substance `AYRLGFNVMLTDAVVARDIL` was 0.512

Kindly note the recorded amyloid nucleation score for `QTNYEAHFDRVINYAFVHLF` , which is -0.392

Reported amyloid nucleation score for `VVCYLRIYRRILYSGIKKWP` was 3.71
